B1: CPEB3 Ribozyme (parent)
chain: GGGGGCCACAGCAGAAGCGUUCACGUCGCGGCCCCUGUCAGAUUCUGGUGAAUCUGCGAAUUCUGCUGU

Variants of: B1
protocol description: self-cleavage, relative activity (ratio to wild type); higher = more cleavage; co-transcriptional
Use 0.6 as the dividing line for self-cleavage, with the line itself on the condition met side and lower values as condition not met.

Would you please look over these solved cases?
1) C18U G56U :: condition not met
2) G58A U67G :: condition met

Could you verify whether the entry U46G C63G shows self-cleavage of no less than 0.6?
condition met

Item C12U U53C with self-cleavage of 0.6 or above?
condition met
